Below are IC50 measurements against Lysine-specific demethylase 4C (Homo sapiens, UniProt Q9H3R0) drawn from the literature.

Could you share which IC50 value was measured for O=C(O)c1ccnc(-c2cn(Cc3ccccc3F)cn2)c1 ?
100 to 1000 nM

Could you share which IC50 value was measured for Cn1nc(Nc2cnccc2C(=O)O)c2c(F)cccc21 ?
< 100 nM

Could you share which IC50 value was measured for O=C(O)c1ccncc1NCC1CCCc2cc(Oc3cccc(C(F)(F)F)n3)ccc21 (stereo not drawn) ?
100 to 1000 nM

Could you share which IC50 value was measured for O=C(O)c1ccnc(-n2nc(Cc3ccc(Cl)cc3)cc2O)c1 ?
1000 to 10000 nM

Could you share which IC50 value was measured for O=C(O)c1ccnc(-n2nc(-c3ccc(Cl)cc3)cc2O)c1 ?
1000 to 10000 nM

Could you share which IC50 value was measured for O=C(O)c1ccnc(-n2nccc2OCc2ccc(F)c(F)c2)c1 ?
100 to 1000 nM

###

pIC50: −log10 of the molar value.
Below are pIC50 measurements against Lysine-specific demethylase 4C (Homo sapiens) drawn from the literature.

Worked set:
>  <Compound>
O=C(O)c1ccnc(-n2nccc2OCc2ccc(Cl)c(OCc3ccc(F)cc3)c2)c1

>  <Target or system>
Lysine-specific demethylase 4C (Homo sapiens)

>  <pIC50>
6.00 to 7.00

$$$$
>  <Compound>
O=C(O)c1ccncc1NC[C@@H]1CCCc2cc(S(=O)(=O)c3ccccc3)ccc21

>  <Target or system>
Lysine-specific demethylase 4C (Homo sapiens)

>  <pIC50>
6.00 to 7.00

$$$$
>  <Compound>
COCCCn1nc(Nc2cnccc2C(=O)O)c2cc(F)ccc21

>  <Target or system>
Lysine-specific demethylase 4C (Homo sapiens)

>  <pIC50>
> 7.00

$$$$
>  <Compound>
O=C(O)c1ccncc1NCC1CCOc2cc(Sc3cccs3)ccc21 (centres unmarked)

>  <Target or system>
Lysine-specific demethylase 4C (Homo sapiens)

>  <pIC50>
6.00 to 7.00

$$$$
>  <Compound>
Cc1ccc(N(C)c2ccc3c(c2)OCC[C@H]3CNc2cnccc2C(=O)O)cc1C

>  <Target or system>
Lysine-specific demethylase 4C (Homo sapiens)

>  <pIC50>
6.00 to 7.00

$$$$

Could you share which pIC50 value was measured for Fc1ccc(-c2c(-c3cc(-c4nn[nH]n4)ccn3)ncn2Cc2ccccc2Cl)cc1 ?
5.00 to 6.00

Could you share which pIC50 value was measured for CN(C)c1ccc(-c2ccnn2-c2cc(C(=O)O)ccn2)cc1 ?
5.00 to 6.00

Could you share which pIC50 value was measured for CN(c1ccc(OCC(F)(F)F)cc1)c1ccc(Oc2nc(O)c3ccncc3n2)cc1 ?
6.00 to 7.00

###

Below are pIC50 measurements against Lysine-specific demethylase 4C (Homo sapiens) drawn from the literature.
pIC50: −log10 of the molar value.

>  <Molecule>
O=C(O)c1ccncc1NC[C@@H]1CCCc2cc(OC(F)F)ccc21

>  <Target or system>
Lysine-specific demethylase 4C (Homo sapiens)

>  <pIC50>
6.00 to 7.00

$$$$
>  <Molecule>
O=C(O)c1ccncc1NCC1OCCc2ccccc21 (centres unmarked)

>  <Target or system>
Lysine-specific demethylase 4C (Homo sapiens)

>  <pIC50>
6.00 to 7.00

$$$$
>  <Molecule>
CN(c1ccc(Cl)cc1)c1ccc(Oc2nc(O)c3ccncc3n2)cc1

>  <Target or system>
Lysine-specific demethylase 4C (Homo sapiens)

>  <pIC50>
6.00 to 7.00

$$$$

Could you share which pIC50 value was measured for CN(c1ccc2c(c1)OCC[C@H]2CNc1cnccc1C(=O)O)c1ccccc1F ?
6.00 to 7.00

Could you share which pIC50 value was measured for COc1cccc(N(C)c2ccc(Oc3nc(O)c4ccncc4n3)cc2)c1 ?
6.00 to 7.00

Could you share which pIC50 value was measured for Oc1nc(Oc2ccnc(N3CCOCC3)c2)nc2cnccc12 ?
6.00 to 7.00

Could you share which pIC50 value was measured for O=C(O)c1ccnc(-c2cn(CCn3cccn3)cn2)c1 ?
5.00 to 6.00

Could you share which pIC50 value was measured for O=C(O)c1ccnc(-c2cn(CCN3CCCC3=O)cn2)c1 ?
6.00 to 7.00

Could you share which pIC50 value was measured for CCCCc1ccnn1-c1cc(C(=O)O)ccn1 ?
< 5.00

Could you share which pIC50 value was measured for CN(c1ccc(Cl)cc1)c1ccc2c(c1)CCC[C@H]2CNc1cnccc1C(=O)O ?
5.00 to 6.00

Could you share which pIC50 value was measured for Oc1nc(OCCc2ccc(Cl)c(Cl)c2)nc2cnccc12 ?
≥ 7.00

Could you share which pIC50 value was measured for O=C(O)c1ccncc1Nc1nn(CC(O)CO)c2ccc(F)cc12 (centres unmarked) ?
> 7.00

Could you share which pIC50 value was measured for COCCCn1cnc(-c2cc(C(=O)O)ccn2)c1-c1ccc(Cl)c(F)c1 ?
5.00 to 6.00

Could you share which pIC50 value was measured for COCCCn1cc(Oc2nc(O)c3ccncc3n2)cn1 ?
6.00 to 7.00

Could you share which pIC50 value was measured for O=S(=O)(c1ccccc1)N1CCC[C@@H](n2cc(Oc3nc(O)c4ccncc4n3)cn2)C1 ?
≥ 7.00

Could you share which pIC50 value was measured for COCc1cc(O)n(-c2cc(C(=O)O)ccn2)n1 ?
5.00 to 6.00

Could you share which pIC50 value was measured for Cn1cnc(-c2cc(C(=O)O)ccn2)c1-c1ccc(Cl)cc1Cl ?
6.00 to 7.00

Could you share which pIC50 value was measured for CN(C)CCOCCn1cnc(-c2cc(C(=O)O)ccn2)c1 ?
≥ 7.00

Could you share which pIC50 value was measured for CCc1ccc(N(C)c2ccc(Oc3nc(O)c4ccncc4n3)cc2)cc1OCCOC ?
5.00 to 6.00

Could you share which pIC50 value was measured for Cn1cnc(-c2nccc3c(O)nc(OCC(C)(C)O)nc23)c1 ?
5.00 to 6.00

Could you share which pIC50 value was measured for Cn1cnc(-c2cc(C(=O)O)ccn2)c1-c1ccc(C(C)(C)C)cc1 ?
5.00 to 6.00

Could you share which pIC50 value was measured for O=C(O)c1ccnc(-c2cn(CCN(Cc3ccc(F)cc3)C3CC3)cn2)c1 ?
≥ 7.00

Could you share which pIC50 value was measured for Cc1cc(N(C)c2ccc3c(c2)CCC[C@H]3CNc2cnccc2C(=O)O)no1 ?
5.00 to 6.00

###

Below are pIC50 measurements against Lysine-specific demethylase 4C (Homo sapiens, UniProt Q9H3R0) drawn from the literature.
pIC50: −log10 of the molar value.

>  <Compound>
FC(F)(F)c1[nH]nnc1-c1ccncc1NCC1CCCc2ccccc21 (stereo not drawn)

>  <Reported metric>
pIC50

>  <Recorded result>
< 5.00

$$$$

Under Lysine-specific demethylase 4C (Homo sapiens, UniProt Q9H3R0): pIC50 value of O=C(O)c1ccncc1NCC1CCOc2c(F)cccc21 (stereo not drawn) ?
≥ 7.00

Under Lysine-specific demethylase 4C (Homo sapiens, UniProt Q9H3R0): pIC50 value of CN(c1ccc(Oc2nc(O)c3ccncc3n2)cc1)c1ccc(C(F)(F)F)cc1 ?
5.00 to 6.00
